# TEST DETAILS: Selectivity index, ratio of CC50 for human MT4 cells to EC50 for HIV1 3B
# Assay type: toxicity, cell-based
# CONDITION SET: read-out: Ratio CC50/EC50
Can you tell me selectivity ratio for the items I'm about to list?

| COMPOUND | selectivity ratio |
| --- | --- |
| Cc1ccc(NC(=S)OCCN2C(=O)c3ccccc3C2=O)c(C)c1 | > 16.7 |
| Cc1ccc2c(c1)C(=O)N(C(C)COC(=S)Nc1ccc(Cl)cc1)C2=O (racemic) | 567 |
| O=C1c2ccccc2C(=O)N1CCOC(=S)NC1CCCC1 | > 9.1 |
| COc1ccc(CCNC(=S)OCCNC(=O)c2ccccc2C(=O)O)cc1OC | 1.6 |
| O=C(O)c1ccccc1C(=O)NCCOC(=S)Nc1cc(F)cc(F)c1 | > 1.6 |
| O=C(O)c1ccccc1C(=O)NCCOC(=S)Nc1c(F)cccc1F | > 2.2 |
| O=C(O)c1ccccc1C(=O)NCCOC(=S)Nc1c(F)cc(F)cc1F | > 13.9 |
| O=C1c2ccccc2C(=O)N1CCOC(=S)Nc1ccc(Cl)c(Cl)c1Cl | > 9.1 |

Hi! Can you tell me selectivity ratio for each of these compounds?
1. Cc1ccc(NC(=S)OCC(C)N2C(=O)c3ccc(C)cc3C2=O)cc1 (racemic)
2. Cc1ccc(Cl)cc1NC(=S)OCCNC(=O)c1ccccc1C(=O)O
3. Cc1ccc2c(c1)C(=O)N(CCOC(=S)Nc1ccc(C)c(Cl)c1)C2=O

-- reply
[410, "> 3.3", 165]

* * *

# TEST DETAILS: Selectivity index, ratio of CC50 for human MT4 cells to EC50 for HIV1 3B
# Type: toxicity, cell-based
# CONDITION SET: read-out: Ratio CC50/EC50
VALUE TYPE: selectivity ratio

| QUERY SMILES | selectivity ratio |
| --- | --- |
| Cc1cccc(C)c1NC(=S)OCCN1C(=O)c2ccccc2C1=O | > 1.3 |
| O=C1c2ccccc2C(=O)N1CCOC(=S)Nc1c(F)cccc1F | > 14.3 |
| Cc1cc(Br)ccc1NC(=S)OCCN1C(=O)c2ccccc2C1=O | > 5.3 |
| Cc1ccc2c(c1)C(=O)N(CCOC(=S)Nc1ccc(Cl)c(C(F)(F)F)c1)C2=O | 17.9 |
| CCCCNC(=S)OCCN1C(=O)c2ccccc2C1=O | > 13.9 |

Next, consider the following compound.
-- ask # query: selectivity ratio of entry "Cc1ccc(NC(=S)OC[C@@H](C)N2C(=O)c3ccccc3C2=O)cc1"
-- reply 1090

* * *

Can you tell me selectivity ratio for the items I'm about to list?
# TEST DETAILS: Selectivity index, ratio of CC50 for human MT4 cells to EC50 for HIV1 3B
# Assay type: toxicity, cell-based
# CONDITION SET: read-out: Ratio CC50/EC50

Previously resolved entries follow.
| QUERY SMILES | selectivity ratio |
| --- | --- |
| O=C1c2ccccc2C(=O)N1CCOC(=S)Nc1ccc(F)cc1F | > 200 |
| O=C1c2ccccc2C(=O)N1CCOC(=S)NCC1CCCCC1 | > 91 |
| O=C1c2ccccc2C(=O)N1CCOC(=S)Nc1cc(F)cc(F)c1 | > 11.1 |

Quick request: selectivity ratio for each listed item, please.
1. COc1ccc(NC(=S)OCCNC(=O)c2ccccc2C(=O)O)cc1OC
2. O=C1c2ccccc2C(=O)N1CCOC(=S)Nc1cc(Cl)cc(Cl)c1

-- reply
["> 6.2", "> 8"]

Please state, for each entry, its recorded selectivity ratio.
1. O=C1c2ccccc2C(=O)N1CCOC(=S)NC1CCCCCCC1
2. O=C1c2ccccc2C(=O)N1CCOC(=S)NCc1ccccc1
3. Cc1ccc2c(c1)C(=O)N(CCOC(=S)Nc1ccc(Br)cc1)C2=O
4. C[C@@H](COC(=S)Nc1ccc(Cl)cc1)NC(=O)c1ccccc1C(=O)O
5. O=C(O)c1ccccc1C(=O)NCCOC(=S)Nc1c(F)c(F)cc(F)c1F
6. Cc1cc(C)cc(NC(=S)OCCN2C(=O)c3ccccc3C2=O)c1

-- reply
1: > 167; 2: > 3.8; 3: 7380; 4: > 43.5; 5: > 1.4; 6: > 25

* * *

Exercise: state measured selectivity ratio for each of the molecules provided.
# TEST DETAILS: Selectivity index, ratio of CC50 for human MT4 cells to EC50 for HIV1 3B
# Type: toxicity, cell-based
# CONDITION SET: read-out: Ratio CC50/EC50

Would you please look over these solved cases?
| QUERY SMILES | selectivity ratio |
| --- | --- |
| COc1ccc(NC(=S)OCCN2C(=O)c3ccc(C)cc3C2=O)cc1 | > 3330 |
| Cc1ccc(NC(=S)OCCN2C(=O)c3ccc(C(C)(C)C)cc3C2=O)cc1 | 28 |
| Cc1ccc(NC(=S)OCCN2C(=O)c3ccccc3C2=O)cc1Cl | > 125 |
| COc1ccc(NC(=S)OCCN2C(=O)c3ccccc3C2=O)cc1OC | > 28.6 |
| COc1ccc(CCNC(=S)OCCN2C(=O)c3ccccc3C2=O)cc1OC | > 12.5 |

-- ask Consider the molecule shown here: "CCc1ccc(NC(=S)OCCN2C(=O)c3ccc(C)cc3C2=O)cc1" What is its recorded selectivity ratio?
-- reply 2150

* * *

# TEST DETAILS: Selectivity index, ratio of CC50 for human MT4 cells to EC50 for HIV1 3B
# Assay type: toxicity, cell-based
# CONDITION SET: read-out: Ratio CC50/EC50
Please go through the items and note down their selectivity ratio.

| QUERY SMILES | selectivity ratio |
| --- | --- |
| Cc1cccc(Cl)c1NC(=S)OCCN1C(=O)c2ccccc2C1=O | > 4.3 |
| O=C1c2ccccc2C(=O)N1CCOC(=S)NCCc1ccccc1 | > 10.9 |
| Cc1ccc2c(c1)C(=O)N(CCOC(=S)Nc1ccc(C#N)cc1)C2=O | 5700 |

Would you mind giving selectivity ratio for every compound in the list below?
1. O=C1c2ccccc2C(=O)N1CCOC(=S)Nc1ccc(Cl)c(Cl)c1
2. O=C1c2ccccc2C(=O)N1CCOC(=S)Nc1cc(Cl)ccc1Cl
3. Cc1ccc2c(c1)C(=O)N(CCOC(=S)Nc1ccc(Cl)c([N+](=O)[O-])c1)C2=O
4. CC(=O)c1ccc(NC(=S)OCCN2C(=O)c3ccc(C)cc3C2=O)cc1
5. O=C1c2ccccc2C(=O)N1CCOC(=S)Nc1c(F)c(F)cc(F)c1F
6. C[C@@H](COC(=S)Nc1ccc(Cl)cc1)N1C(=O)c2ccccc2C1=O
7. O=C(O)c1ccccc1C(=O)NCCOC(=S)Nc1cc(F)ccc1F

-- reply
1: > 500; 2: > 2.4; 3: > 2000; 4: > 1430; 5: > 10; 6: 420; 7: > 2

* * *

# System: Human immunodeficiency virus 1
# TEST DETAILS: Antiviral activity against HIV1 3B Y181C resistant mutant in human MT4 cells assessed as protection against viral induced cytopathogenicity by MTT assay
# Format: functional, organism-based
# CONDITION SET: Human immunodeficiency virus 1, 3B
Could you please report measured pEC50 for the items listed next?
One number for each entry, as −log10 of the molar value.

A selection of reference data follows.
| COMPOUND | pEC50 |
| --- | --- |
| Cc1ccc2c(c1)C(=O)N(CCOC(=S)Nc1ccc(F)cc1)C2=O | 4.17 |
| S=C(NCCc1ccccn1)Nc1ccc(Br)cn1 [TROVIRDINE] | 4.82 |
| Cc1ccc(NC(=S)OC[C@@H](C)N2C(=O)c3ccccc3C2=O)cc1 | 5.05 |
| COc1ccc(NC(=S)OCCN2C(=O)c3ccc(C)cc3C2=O)cc1 | 4.36 |

-- ask Fill in: pEC50 of "O=C1c2ccccc2C(=O)N1CCOC(=S)Nc1ccc(Cl)c([N+](=O)[O-])c1" is ___
-- reply 5.55

* * *

# TEST DETAILS: Selectivity index, ratio of CC50 for human MT4 cells to EC50 for HIV1 3B
# Assay type: toxicity, cell-based
# CONDITION SET: read-out: Ratio CC50/EC50
VALUE TYPE: selectivity ratio

Example results:
| QUERY SMILES | selectivity ratio |
| --- | --- |
| Cc1ccc2c(c1)C(=O)N(CCOC(=S)NC1CCCCC1)C2=O | > 333 |
| O=C1c2ccccc2C(=O)N1CCOC(=S)Nc1cccc(Cl)c1Cl | > 3.3 |
| O=C1c2ccccc2C(=O)N1CCOC(=S)Nc1c(F)cc(F)cc1F | > 50 |
| O=C1c2ccccc2C(=O)N1CCOC(=S)Nc1ccc(Cl)c([N+](=O)[O-])c1 | > 2000 |
| O=C1c2ccccc2C(=O)N1CCOC(=S)Nc1cc(F)ccc1F | > 12.5 |
| Cc1cc(Cl)ccc1NC(=S)OCCN1C(=O)c2ccccc2C1=O | > 3.7 |

Query molecule follows.
-- ask Entry "S=C(NCCc1ccccn1)Nc1ccc(Br)cn1" has what selectivity ratio?
-- reply 3000
